Target: T1, purified recombinant human VEGF165 (human, UniProt P15692 27-191, glycosylated)
T1 construct: mature; Bought from Calbiochem; also called VEGF protein (Calbiochem); homodimeric VEGF protein
T1 sequence (P15692 other isoform, or with tags, fused parts or gaps limits assumed): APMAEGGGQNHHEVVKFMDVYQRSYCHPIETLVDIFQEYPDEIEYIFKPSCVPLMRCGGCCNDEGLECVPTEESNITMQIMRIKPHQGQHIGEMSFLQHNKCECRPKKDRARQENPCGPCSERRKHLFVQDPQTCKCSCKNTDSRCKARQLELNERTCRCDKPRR
Experiment: SPR (BIAcore), purified scFv over VEGF immobilized on CM5 chip, 35 C
Experimental readout: kon (M⁻¹ s⁻¹)
Please reply with the bare figure in M⁻¹ s⁻¹ and do not write the unit itself.

Examples with their reported kon follow.
hAB16 (scFv, Single chain format; not shown: HA-His6 tag at C-terminus) scFv: EVQLVQSGGGVVQPGGSLRLSCAASGYTFTNYGMNWIRQAPGKGLEWVGWINTYTGEPTYAADFKRRVTFSLDTSKSTAYLQLNSLRAEDTAVYYCAKYPYYYGRSHWYFDVWGQGTLVTVSSGGGGSGGGGSGGGGSDIVMTQSPSTLSASPGERATITCNASQSIGSYLAWYQQKPGQAPKVLIYGASNLASGVPSRFSGSRSGTDFTLTISSLQPEDFAVYYCQQYNSTPWTFGGGTKLEIK; 29300
hAB35 (scFv, Single chain format; not shown: HA-His6 tag at C-terminus) scFv: EVQLVQSGGGVVQPGGSLRLSCAASGYDFTHFGLNWIRQAPGKGPEWVGWINTYTGEPTYAQDFKRRVTFSLDTSKSTAYLQLNSLRAEDTAVYYCAKYPYYYGRSHWYFDVWGQGTLVTVSSGGGGSGGGGSGGGGSDIVMTQSPSTLSASPGERATITCNASQSIGSYLAWYQQKPGQAPKVLIYGASNLASGVPSRFSGSRSGTDFTLTISSLQPEDFAVYYCQQYNSTPWTFGGGTKLEIK; 82800
hAB36 (scFv, Single chain format; not shown: HA-His6 tag at C-terminus) scFv: EVQLVQSGGGVVQPGGSLRLSCAASGYDLSHYGLNWIRQAPGKGPEWVGWINTYTGEPTYAPDFTRRVTFSLDTSKSTAYLQLNSLRAEDTAVYYCAKYPYYYGRSHWYFDVWGQGTLVTVSSGGGGSGGGGSGGGGSDIVMTQSPSTLSASPGERATITCNASQSIGSYLAWYQQKPGQAPKVLIYGASNLASGVPSRFSGSRSGTDFTLTISSLQPEDFAVYYCQQYNSTPWTFGGGTKLEIK; 47500
hAB14 (scFv, Single chain format; not shown: HA-His6 tag at C-terminus) scFv: EVQLVQSGGGVVQPGGSLRLSCAASGYTFTNYGMNWIRQAPGKGLEWVGWINTYTGEPTYAADFKRRVTFSLDTSKSTAYLQLNSLRAEDTAVYYCAKYPYYYGRSHWYFDVWGQGTLVTVSSGGGGSGGGGSGGGGSAIRMTQSPSSVSASVGDTVTIACRASQAIRNDLTWYQQKPGTAPKLLIYGATTLQSGVPSRFSGSGSGTDFTLTISSLQPEDFATYYCQQSSTTPWTFGQGTKVDIK; 17100
hAB15 (scFv, Single chain format; not shown: HA-His6 tag at C-terminus) scFv: EVQLVQSGGGVVQPGGSLRLSCAASGYTFTNYGMNWIRQAPGKGLEWVGWINTYTGEPTYAADFKRRVTFSLDTSKSTAYLQLNSLRAEDTAVYYCAKYPYYYGRSHWYFDVWGQGTLVTVSSGGGGSGGGGSGGGGSDIVMTQSPSTLSASPGERATITCHASQSISTYLAWYQQKPGQAPRVLIYGASNLASGVPNRFSGSGSGTDFTLTISSLQPEDFAVYYCQQYNSAPWTFGGGTKVEIK; 23400
hAB39 (scFv, Single chain format; not shown: HA-His6 tag at C-terminus) scFv: EVQLVQSGGGVVQPGGSLRLSCAASGYDFTHFGLNWVRQAPGKGLEWVGWVNTYTGETTYAHEFKRRVTFSLDTSKSTAYLQLNSLRAEDTAVYYCAKYPYYYGRSHWYFDVWGQGTLVTVSSGGGGSGGGGSGGGGSDIVMTQSPSTLSASPGERATITCNASQSIGSYLAWYQQKPGQAPKVLIYGASNLASGVPSRFSGSRSGTDFTLTISSLQPEDFAVYYCQQYNSTPWTFGGGTKLEIK; 28400

Q: Any idea what its kon is? The binder is hAB38 (scFv, Single chain format; not shown: HA-His6 tag at C-terminus) scFv: EVQLVQSGGGVVQPGGSLRLSCAASGYNFSHFGLNWLRQAPGKGPEWVGWINTYTGEPTYAPEFKRRVTFSLDTSKSTAYLQLNSLRAEDTAVYYCAKYPYYYGRSHWYFDVWGQGTLVTVSSGGGGSGGGGSGGGGSDIVMTQSPSTLSASPGERATITCNASQSIGSYLAWYQQKPGQAPKVLIYGASNLASGVPSRFSGSRSGTDFTLTISSLQPEDFAVYYCQQYNSTPWTFGGGTKLEIK
Ans: 50000

Q: hAB7 (scFv, Single chain format; not shown: HA-His6 tag at C-terminus) scFv: EVQLVQSGGGVVQPGGSLRLSCAASGYTFTNYGMNWVRQAPGKGLEWVGWINTYTGEPTYAADFKRRFTFSLDTSKSTAYLQMNSLRAEDTAVYYCAKYPYYYGRSHWYFDVWGQGTLVTVSSGGGGSGGGGSGGGGSDIQMTQSPSSLSASVGDRVTITCSASQDISNYLNWYQQKPGKAPKVLIYFTSSLHSGVPSRFSGSGSGTDFTLTISSLQPEDFATYYCQQYSTVPWTFGQGTKVEIK ?
Ans: 8500
